Data origin, for the record: paper PMC5540273

# Tested on: EPHA3
# conditionLabel: concentration: 1 μM, replicates: in singlicate; n = 1;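 note: KINOMEscan kinase panel screen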
observedProperty: %Inh (%)
Field format: number, assumed %, no unit text.

molecule: COC(=O)c1c(-c2ccccc2)c2cc(Br)ccc2c(=O)n1Cc1ccc(NC(=O)CCC(=O)O)cc1
%Inh (%): 4
//
molecule: COc1cccc(-n2cnc3c(N)ncnc32)c1
%Inh (%): 4
//
molecule: COc1cc2nccc(Nc3cccc(Oc4ccccc4)c3)c2cc1OC.Cl
%Inh (%): 12
//
molecule: COc1cc(Nc2nccc(N3CCC(NC(=O)C4COc5ccccc5O4)C3)n2)cc(OC)c1OC (centres unmarked)
%Inh (%): 1
//
molecule: COc1cccc(C2=C(Nc3cccc(C(=O)O)c3)C(=O)NC2=O)c1
%Inh (%): 0

(Q) Fill in the blank: the reported %Inh of `CCc1ccc(-c2ccc3c(c2)-c2nn(C)cc2S(=O)(=O)N3C)cc1` is ____.
(A) 0

(Q) What %Inh value was documented for this molecule, `COc1cc(OC)cc(-c2cc3cnc(N)nc3nc2NC(=O)NC(C)(C)C)c1` ?
(A) 0

(Q) Data request, read-out %Inh, for `CCCC(=O)Nc1n[nH]c2ncc(-c3cccc4ccccc34)cc12`
(A) 0

---

Each item that follows carries a reported %Inh.
# Tested on: SIK
# conditionLabel: concentration: 1 μM, replicates: in singlicate; n = 1
API: value field is a number in %; no unit string.

compound: CCC(=O)c1c(-c2ccccc2)c2cc(Cl)ccc2c(=O)n1Cc1cc(C(=O)NC2CC2)n(C)n1
observedProperty: %Inh
recordedMeasurement: 1

compound: Cc1ccccc1COc1cc(-n2cnc3cc(Cl)ccc32)sc1C(N)=O [GW813349]
observedProperty: %Inh
recordedMeasurement: 4

compound: Cc1nnc(-c2ccc(C)c(-c3ccc(C(=O)O)cc3)c2)o1 [GW608005]
observedProperty: %Inh
recordedMeasurement: 0

compound: COc1ccc(Nc2nccc(N3CCC(NS(=O)(=O)c4ccc(NC(C)=O)cc4)C3)n2)cc1 (centres unmarked) [GSK1379729]
observedProperty: %Inh
recordedMeasurement: 2

compound: CN(C)c1cc(-c2ccc3c(N)n[nH]c3c2)nc(N)n1 [GSK2219329]
observedProperty: %Inh
recordedMeasurement: 0

(Q) What is its %Inh for SIK? Entry: Cc1nn2c(=O)cc(N3CCOCC3)nc2n1Cc1cccc(Cl)c1Cl [GSK2342769]
(A) 0

(Q) # returns recorded %Inh (system: SIK) for Cc1cccc(-c2nc(Nc3ccc4c(cnn4C)c3)c3ccccc3n2)n1 [GW876731]
(A) 0

(Q) # value lookup — system SIK, readout %Inh, item CN1C(=O)C(Nc2ccccc2)=C(c2ccccc2)C1=O [SB-300079]
(A) 3

(Q) API: value(readout=%Inh, system=SIK) for record COc1cc2nccc(Nc3ccc(OCc4ccc(NC(C)=O)cc4)cc3)c2cc1OC.Cl [GW440135]
(A) 0

(Q) Request body: readout %Inh, system SIK, query CCn1c(-c2nonc2N)nc2ccccc21 [SB-693162/GW549034] . Return the value.
(A) 10

(Q) Lab request: please report %Inh under test system SIK for CCS(=O)(=O)c1ccc(OC)c(Nc2ncc(-c3ccc(F)cc3)o2)c1.Cl [GW591947]
(A) 2

---

# Tested on: DCAMKL1
# Construct: gene DCLK1
# conditionLabel: concentration: 1 μM, replicates: in singlicate; n = 1
The label depends only on %Inh: criterion met if it is at least 20%, criterion not met if it is smaller.

For orientation, consider the following solved cases.
molecule: COc1cc2ncn(-c3cc(OCc4ccncc4Br)c(C(N)=O)s3)c2cc1OC [GW854278]
assayedTarget: DCAMKL1
classAssignment: criterion not met
//
molecule: Nc1ncnc2c1ncn2-c1cccc(F)c1 [SKF-97560]
assayedTarget: DCAMKL1
classAssignment: criterion not met
//
molecule: CCC(=O)c1c(-c2ccccc2)c2cc(Cl)ccc2c(=O)n1Cc1cc(S(C)(=O)=O)n(CC(F)F)n1
assayedTarget: DCAMKL1
classAssignment: criterion not met

(Q) Please indicate if the recorded %Inh for CN1C(=O)C(Nc2cc(Cl)c(O)c(Cl)c2)=C(c2ccc(Cl)cc2)C1=O [SB-404321] meets or exceeds 20%.
(A) criterion not met

(Q) Does %Inh meet or surpass 20% for `Cc1ccc(Oc2ccc(Nc3ncnc4cc[nH]c34)cc2C)cn1` ?
(A) criterion not met

(Q) Answer whether %Inh of COc1cccc(C2=C(N(C)c3ccccc3)C(=O)NC2=O)c1 [SB-334865] is greater than or equal to 20%.
(A) criterion not met

(Q) Exam item: decide whether the reported %Inh for COc1cc(Nc2nccc(N3CCC(NC(=O)C(C)c4ccc(Cl)cc4)C3)n2)cc(OC)c1OC (stereo not shown) [GSK1379757] is at least 20%.
(A) criterion not met

(Q) Is the recorded value of %Inh equal to or greater than 20% for this molecule? OCCCNc1nccc(-c2c(-c3cccc(C(F)(F)F)c3)nn3cc(C(F)(F)F)ccc23)n1 [GW630813]
(A) criterion met

(Q) I'd appreciate it if you could say whether `CCCNC(=O)Nc1ccc(Oc2ncnc3ccn(C)c23)cc1` has %Inh at least equal to 20%.
(A) criterion met

(Q) Please indicate if the recorded %Inh for O=C1NC(=O)C(c2ccccc2)=C1Nc1cccc(O)c1 [SB-390534] meets or exceeds 20%.
(A) criterion not met

(Q) Determine whether this molecule has %Inh no lower than 20%: O=C(Nc1n[nH]c2nc(-c3ccccc3)c(Cl)cc12)C1CC1 [SB-734909]
(A) criterion not met

(Q) Is the recorded value of %Inh equal to or greater than 20% for this molecule? `CCc1ccc(-c2ccc3c(c2)-c2nn(C)cc2S(=O)(=O)N3C)cc1`
(A) criterion met

(Q) Please indicate if the recorded %Inh for Cc1cccc(-c2nc(Nc3ccc4c(cnn4C)c3)c3ccccc3n2)n1 [GW876731] meets or exceeds 20%.
(A) criterion not met

(Q) State whether the measured %Inh reaches 20%, counting equality as reaching it, for `CCC(=O)c1c(-c2ccccc2)c2cc(Cl)ccc2c(=O)n1Cc1cc(S(C)(=O)=O)n(CC(N)=O)n1`
(A) criterion met

(Q) Could you verify whether the entry Nc1ncnc2c1ncn2-c1ccc(Cl)cc1 [AH2635] shows %Inh of no less than 20%?
(A) criterion not met

(Q) Does the reported %Inh for FC(F)(F)c1ccc(-c2ncn(CCCN3CCOCC3)c2-c2ccncc2)cc1 [SB-217780] fall at or above the 20% mark?
(A) criterion not met

(Q) Given COc1cccc(-n2cnc3c(N)ncnc32)c1 [SKF-97416] , state whether its %Inh is at least 20%.
(A) criterion not met

(Q) Determine whether measured %Inh meets or exceeds 20% for `COc1ccc(-c2coc3ccc(-c4nnc(SCc5cccc(C#N)c5)o4)cc23)cc1`
(A) criterion met

---

# Test system: ACVR2B
# conditionLabel: concentration: 1 μM, replicates: in singlicate; n = 1
Rule: %Inh below 1% gives True, anything at or above gives False.

Illustrative cases are given below, each with its answer.
molecule: COc1ccc(CNC(=O)NC2CCN(c3ccnc(Nc4ccc(F)cc4)n3)C2)cc1 (stereo not shown)
classAssignment: False
--
molecule: CCS(=O)(=O)c1ccc(OC)c(Nc2ncc(-c3ccc(F)cc3)o2)c1.Cl
classAssignment: True
--
molecule: CCCC(=O)Nc1n[nH]c2ncc(-c3cccc4ccccc34)cc12
classAssignment: False

(Q) Consider the molecule `COc1cc2nccc(Nc3cccc(Oc4ccccc4)c3)c2cc1OC.Cl` . Is its %Inh strictly less than 1%?
(A) True

(Q) Dear reviewer, please state whether `O=C(Nc1n[nH]c2nc(-c3ccccc3)c(Br)cc12)C1CC1` has %Inh strictly beneath 1%.
(A) False

(Q) In the record for `O=C(Nc1n[nH]c2nc(-c3ccccc3)c(Cl)cc12)C1CC1` , is %Inh less than 1%?
(A) False

(Q) Lab note: %Inh threshold 1%. Does this molecule come in strictly under it? `Cc1c(Cn2c(C)nn3c(=O)cc(N4CCO[C@H](C)C4)nc23)cccc1C(F)(F)F`
(A) True

(Q) Please state whether %Inh is below 1% for `COc1cc(OC)cc(-c2cc3cnc(N)nc3nc2NC(=O)NC(C)(C)C)c1`
(A) True

(Q) Determine whether this molecule shows %Inh lower than 1% (ties excluded): `COc1cccc(C2=C(Nc3cccc(C(=O)O)c3)C(=O)NC2=O)c1`
(A) False

(Q) Problem: For the molecule `Nc1nc(N)c2nc(-c3ccccc3)[nH]c2n1` , is %Inh under 1%?
(A) False

(Q) Is %Inh of `CC(C)(C)c1ccc(C(=O)Nc2cn3cc(-c4ccccc4)ccc3n2)cc1` strictly below 1%?
(A) True

(Q) Would you kindly verify if %Inh of `Nc1ncnc2c1ncn2-c1ccc(Cl)cc1` is strictly less than 1%?
(A) False

(Q) Is it true that %Inh reported for `Fc1cccc(CSc2nnc(-c3ccc4c(c3)CCO4)o2)c1` is less than 1%?
(A) True
